Values from the nanobody polyreactivity screen of Harvey et al. (2022)

Assay: yeast display, Sf9 membrane polyspecificity reagent, FACS + sequencing; frameworks hold sequencing errors
property name: polyreactivity (PSR sort gate)

seq_text=QDQHGDSGGGLVQAGGSLRLSCSASGFTITYNTMGWYRQAPGKERELVATITAGDGSTYYADSVKGRFTISRDNAKNTVYFQMNSLKPEDTAVYYCAADAYYYYAGGHYYWGQGTQVTVSS property_name="polyreactivity (PSR sort gate)" result="low polyreactivity"
seq_text=QVQLVESGGGLVQAGGSLRLSCAASGFTFFDYVMGWYRQAPGKERELVAAISSGGSTYYADSVKGRFTISRDNAKNTVYLQMNSLKPEDTAVYYCATDNGYPDDATDGYYSLYDYWGQGTQVTVSS property_name="polyreactivity (PSR sort gate)" result="low polyreactivity"
seq_text=QVQLVESGGGLVQAGGSLRLSCAASGSIFEGNGMGWYRQAPGKERELVAAITFRSGSTYYADSVKGRFTISRDNAKNTVYLQMNSLKPEDTAVYYCAADEYYEVSAYDYWGQGTQVTVSS property_name="polyreactivity (PSR sort gate)" result="low polyreactivity"

----------
Test: yeast display, Sf9 membrane polyspecificity reagent, FACS + sequencing; frameworks hold sequencing errors
property name: polyreactivity (PSR sort gate)

seq_text=QVQLVESGGGLVQAGGSLRLSCAASGFIFQAYAMGWYRQAPGKERELVAAISSSGGSTYYADSVKGRFTISRDNAKNTVYLQMNSLKPEDTAVYYCAARSRRVSLIRDSYGYWGQGTQVTVSS result="high polyreactivity"
seq_text=QVKQQESGGGLVKAGGSLRLSCAASGNISNHNDMGRYRQAPGKEREFVAGITAGGITNYADRVKGRCTISRDNAKNTVYLQMNCLKPEETAVYYCAAYADYAKSYGYWGQGTQATVSS result="low polyreactivity"
seq_text=QVQLVESGGGLVQAGGSLRLSCAASGRTFETNAMGWYRQAPGKERELVAAISRSGGRTYYADSVKGRFTISRDNAKNTVYLQMNSLKPEDTAVYYCAVRQATVTGGGYWGQGTQVTVSS result="high polyreactivity"
seq_text=QVQIVESGGGLVQAGGSLRLSCAASGRNFGANAMGWYRQAPGKERELVASISSSGSRTYYAVSVKGRFTISRDNAKNTVSLQMNSLKPEDSAVYYCAARYWIYRSEYDYWGQGTQVTVSS result="high polyreactivity"
seq_text=QVQLVESGGGLVQAGGSLRLSCAASGSTFTYYAMGWYRQAPGTERELVAAITGSDGRTYYADSVKGRFTISRDNAKNTVYLQMNSLKPEDTAVYYCATDVPIREIDEFGYWGQGTQVTVSS result="low polyreactivity"
seq_text=QVQLVESGGGLVQAGGSLRLSCAASGITFYWYTMGWYRQAPGKERELVADIDGDGGSTYYADSVKGRFTISRDNAKNTVYLQMNSLKPEDTAVYYCAAQVWPWGYDYWGQGTQVTVSS result="high polyreactivity"
seq_text=QVQLVESGGGLVQAGGSLRLSCAASGSTFWYNAMGWYTQAPGKERELVAAITWTGDGTYYADSVKGRFTISRDNAKNTVYLQMNSLKPEDTAVYYCAAAYFQWSTSIVGLDAWYDYWGQGTQVTVSS result="low polyreactivity"
seq_text=QVQLVESGGGLVQAGGSLRLSCAASGFIIKSYAMGWYRQAPGKERELVAAISYTGSITYYADSVKGRFTISRDNAKNTVYLQMNSLKPEDTSVYYCAVGRYADQNDYWGQGTQVTVSS result="high polyreactivity"
seq_text=QVQLVESGGGLVQAGGSLRLSCAASGSTFGTYAMGWYRQAPGKERELVADITGSGGSTYYADSVKGRFTISRDNAKNTVYLQMNSLKPEDTAVYYCAAEYGLGDDTAYGYWGQGTQVTVSS result="low polyreactivity"
seq_text=QVQLEESGGGLVQAGGSLRLSCAASGRIFGYYAMGWYRKAPGKERELVAAIRRSGASTYYADSVKGRFTISRDNAENTVYLQMYSLKPVDTAVYYCSQAGYSPVYGYWGQGTQVTVSS result="high polyreactivity"

Next up:
Sample QVQLVESGGWLVQAGGSLRLSCDASGITFYRNAVGWYRPAPGKERELVADITVSGGSTYYADSVKGRFTISRDNAKNTVYLQMNSLKPEDTAVYYCNAGLYQYDVWAYYIRYDYWGQGTQVTVSS ; polyreactivity (PSR sort gate) observed: low polyreactivity

----------
Assay: yeast display, Sf9 membrane polyspecificity reagent, FACS + sequencing; frameworks hold sequencing errors
property name: polyreactivity (PSR sort gate)

seq_text=QVQLVESGGGLVQAGGSLRLSCAASGSIFWYNAMGWYRQAPGKERELVAAIRWRGGSTYYADSVKGRFTISRDNAKNTVYLQMNSLKPEDTAVYYCAAQVYVSQLYTSYYYWGQGTQVTVSS result="high polyreactivity"
seq_text=QVQLVESGGGLVQAGGSLRLSCAASGRTFVSNAMGWYRQAPGKERELVAGINWTDDSTYYADSVKGRFTISRDNAKNTVYLQINSLKPEDTAVYYCAADSLEFAWPRFDYWGQGTQVTVSS result="low polyreactivity"
seq_text=QVQLVESGGGLVLAGGSLRLSCAASGRTYYAYTMGWYRKAPRKERELVAAISGSGSTTYYADSVKGRFTISRDNAKNTVYLQMNSLKPEDTAVFYCAADFFAGTQRTFDYWGQGTQVTVSS result="high polyreactivity"
seq_text=QVQLQESGGGLVQAGGSLRPSCAASGSISDRWWMGLYRQAPGKERESVAGINDGASTYYADSVKGRFTISCDNAKNTVYLQMNSLKPEDTAVYYCAVYVFITGCLNYWGQGTQVTVSS result="high polyreactivity"
seq_text=QVQLVESGGGLVQAGGSLRLSCAASGITFGRNTMGWYRPAPGKERELVAAIDSGGNTYADSVKGRFTISRDNAKNTVYLQMNSLKPEDTAVYYCAVDGGEFSSYGYWGQGTQVTVSS result="low polyreactivity"
seq_text=QVQLVESVRGLVHAGGSLRLSCAASGSTFYPYRMGGYRQAPGKEREFVAAITWSGGSTYYADSVKGRFTISRDNAKNTVYLQMNSLKPEDTAVYYCNKDARWYAYNSEYDHWGQGTQVSVSS result="low polyreactivity"
seq_text=QVQLVESGGGLVQAGGSLRLSCAASGSILYPYAMGWYRQAPGKERELVAAISSDGSTYYADSVKGRFTISRDNAKNTVYLQMNSLKPEDTAVYYCNADIGPRYDYWGQGTQVTVSS result="high polyreactivity"
seq_text=QVQLVESGGGLVQAGGSLRLSCAASGLTLYKYAMGWYRQADGKVRELVATSRSRGTSTYYADSVKGRFTISRDNAKNTVYLQMNSLKPEDTAVYDCAADYLYRWLFAYNGGMDYCGQGTQVTVSS result="high polyreactivity"
seq_text=QVQLVESGGGLVQAGGSLRLSCAASGRIFTFNAMGWYRQAPGKERELVAAGSTYYADSVKGRFTISRDNAKNTVYLQMNSLKPEDTAVYYCAVEDLGSEGWGWYKEMDYWGQGTQVTVSS result="low polyreactivity"
seq_text=QVQLVESGGGLVQAGGSLRLSCAASGRIFNAYAIGWYRQAPGKERELVAAITVSGTRTYYADSVKGRFTISRDNAKNTVYLQMNSLKPEDTAVYYCAADIYHQPRYKYYYWGQGTQVTVSS result="high polyreactivity"

Now for another entry.
The sequence identified as QVQLVESGGGLVQAGGSLRLSCAASGRIFWYNAMGWYRQAPGKERELVATITSAGDTNYADSVKGRFTISRDNAKNTVFLQMNSLKPEDTAVYYCAKYYRWLITRRGSNDYWGQGTQVTVSS registered its polyreactivity (PSR sort gate) at high polyreactivity

----------
Assay: yeast display, Sf9 membrane polyspecificity reagent, FACS + sequencing; frameworks hold sequencing errors
property name: polyreactivity (PSR sort gate)

seq_text=QVQLVESGGGLVQAGGSLRLSCAASGSIIGRYTMGWYRQAPGKERELVAAISRSGGSTYYADSVKGRFTISRDNAKNTVYLQMNSLKPEDTAVYYCAKRTYTPRGERLYSSYDYWGQGTQVTVSS result="high polyreactivity"
seq_text=QVQLVESGGGLVQAGGSLRLSCAASGRTLFRYAMGWYRQAPGKERELVAAISRSGGTTYYADSVKGRFTISRDNAKNTVYLQMNSLKPEDTAVYYCAARGRYKDGYRMDYWGQGTQVTVSS result="high polyreactivity"

----------
Assay: yeast display, Sf9 membrane polyspecificity reagent, FACS + sequencing; frameworks hold sequencing errors
property name: polyreactivity (PSR sort gate)

seq_text=QVQLVESGGGLVQAGGSLRLSCAASGRIFSGYAIGWYRQAPGKERELVAAITSGGSTNYADSVKGRFTISRDNAKNTVYLQMNSLKPEDTAVYYCAADYREVSTTAYYYWGQGTQVTVSS result="low polyreactivity"
seq_text=QVQLVESGGGLVQAGGSLRLSCSASGSIFAYYAMGWYRQAPGKERELVAAISKSAGSTYYADSVKGRFTISRDNAKNTVYLQMNSLKPEDTAVYYCAAVVLGRRLGFRGDYNYWGQGTQVTVSS result="high polyreactivity"
seq_text=QVQLVESGGCLVQAGGSLRLSCAASGFIFGSNVMGWYRQAPGKERELVAAISYSGASTYYADSVKGRFTISRDNAKNTVYLQMNSLKPEDTAVYYCNAESYYFYWPVYSYDYWGQGTQVTVSS result="low polyreactivity"
seq_text=QVQLVESGGGLVQAGGSLRLSCAASGSIFYGNAMGWYRQAPGKERELVAAIDGTGASTYYADSVKGRFTISRDNAKNTVYLQMNSLKPEDTAVYYCNKALTSKDYPVRTVERDYWGQGTQVTVSS result="low polyreactivity"

As a next step, examine the sequence that follows.
The value of polyreactivity (PSR sort gate) measured for the sequence QVQLVESGAGLVQAGGSLRLSCAASGIISYRNGMGWYRQAPGKERELVASISKRADSTYYADSVKGGFTLSRDNAKNTVYLQMNSLKPEDTAVYYCAANFRDWHRYYPAGYLRRGYWGQGTQVTVSS turned out to be high polyreactivity
